# target-system: Feline FcRn (complex of FcRn-α subunit and β-microglobulin, C-terminal His tag) (feline)
# Sequence (chain, as listed by the source, chain 1 of 2): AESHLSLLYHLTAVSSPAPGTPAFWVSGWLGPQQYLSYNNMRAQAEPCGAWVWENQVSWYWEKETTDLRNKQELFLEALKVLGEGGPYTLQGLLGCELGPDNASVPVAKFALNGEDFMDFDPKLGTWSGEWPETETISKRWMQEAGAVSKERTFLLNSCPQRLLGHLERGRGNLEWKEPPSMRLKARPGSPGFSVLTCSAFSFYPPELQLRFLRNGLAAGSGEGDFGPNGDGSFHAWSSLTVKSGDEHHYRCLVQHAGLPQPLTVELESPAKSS
# Sequence (Q5MGS7 21-118, chain 2 of 2): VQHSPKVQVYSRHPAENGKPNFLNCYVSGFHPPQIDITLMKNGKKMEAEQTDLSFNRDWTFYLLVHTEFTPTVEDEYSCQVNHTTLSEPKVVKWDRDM
# method-summary: SPR Biacore, FcRn amine-coupled on CM5, pH 6
assay-metric: pKd
Conceptually, pKd converts a concentration in mol/L into minus its log10.

I'd like to know its pKd. The binder in question is mAb1 (felinized anti-IL31 antibody) S428L, feline IgG1a (antibody, part only; not given: Anti-IL31 heavy and light variable domains, part only) heavy, part: ASTTAPSVFPLAPSCGTTSGATVALACLVLGYFPEPVTVSWNSGALTSGVHTFPAVLQASGLYSLSSMVTVPSSRWLSDTFTCNVAHPPSNTKVDKTVRKTDHPPGPKPCDCPKCPPPEMLGGPSIFIFPPKPKDTLSISRTPEVTCLVVDLGPDDSDVQITWFVDNTQVYTAKTSPREEQFNSTYRVVSVLPILHQDWLKGKEFKCKVNSKSLPSPIERTISKAKGQPHEPQVYVLPPAQEELSRNKVSVTCLIKSFHPPDIAVEWEITGQPEPENNYRTTPPQLDSDGTYFVYSKLSVDRSHWQRGNTYTCSVLHEALHSHHTQKSLTQSPGK
8.42

Data provenance: patent US20260193335A1
